# credit: patent US20180252712A1

System: MNoV^CR6
Experiment: CRISPR screen in BV2-Cas9 cells, sgRNA enrichment after MNoV^CR6 infection
Format: cell-based, murine norovirus
Settings: MNoV^CR6, MOI 5, ten days post-infection
MEASUREMENT LABEL: log2 fold enrichment after MNV infection relative to mock infected cells, CR6 MOI 5 (log2 fold enrichment)
Write the answer as a number in log2 fold enrichment, unit excluded.

Input line: GET /values?readout=log2 fold enrichment after MNV infection relative to mock infected cells, CR6 MOI 5&item= ACGGAAGTGAGAAAGAAAAG: sgRNA used in screen, matches CD300le (listed as DNA, chemistry not given here)
Output line: −6.6

Input line: Reported log2 fold enrichment after MNV infection relative to mock infected cells, CR6 MOI 5 for GCAGCAAATCCAAATCTCAG: sgRNA used in screen, matches CD300lb (listed as DNA, chemistry not given here) : what is it?
Output line: −5.8

Input line: Form field: reported log2 fold enrichment after MNV infection relative to mock infected cells, CR6 MOI 5 of GCCCTTGCTACTTACCTGGG: sgRNA used in screen, matches CD300ld (listed as DNA, chemistry not given here)
Output line: −5.5

Input line: Which log2 fold enrichment after MNV infection relative to mock infected cells, CR6 MOI 5 is reported for this substance? GGTCGTCCCTGATGGACACA: sgRNA used in screen, matches CD300lh (listed as DNA, chemistry not given here)
Output line: 11.0

Input line: Please look up its log2 fold enrichment after MNV infection relative to mock infected cells, CR6 MOI 5: CATAGGTCACTGTAAAGGTG: sgRNA used in screen, matches CD300la (listed as DNA, chemistry not given here)
Output line: −7.2

Input line: Recorded log2 fold enrichment after MNV infection relative to mock infected cells, CR6 MOI 5 for GGATCCAGTCACAGGTCCAG: sgRNA used in screen, matches CD300lf, CD300lh (listed as DNA, chemistry not given here) , please?
Output line: 12.6

Input line: Value lookup for log2 fold enrichment after MNV infection relative to mock infected cells, CR6 MOI 5; key = TGTCACTGTGAAGATGGTGG: sgRNA used in screen, matches CD300lf (listed as DNA, chemistry not given here)
Output line: −1.9

Input line: Which log2 fold enrichment after MNV infection relative to mock infected cells, CR6 MOI 5 value belongs to GCTACTTACCTGGGAGGAAA: sgRNA used in screen, matches CD300lh (listed as DNA, chemistry not given here) ?
Output line: −5.9

Input line: # lookup: log2 fold enrichment after MNV infection relative to mock infected cells, CR6 MOI 5 of CCTGTGATCCAGAAGAGAAA: sgRNA used in screen, matches CD300lf (listed as DNA, chemistry not given here)
Output line: 9.6

Input line: Please give the measured log2 fold enrichment after MNV infection relative to mock infected cells, CR6 MOI 5 for this substance: GGAAGAGGATGAGCAGAGCA: sgRNA used in screen, no identical CD300 match marked (listed as DNA, chemistry not given here)
Output line: −6.4

Input line: For CTACGCAAATCAGGACCAGG: sgRNA used in screen, matches CD300lg (listed as DNA, chemistry not given here) , what is its reported log2 fold enrichment after MNV infection relative to mock infected cells, CR6 MOI 5?
Output line: −6.4

Input line: log2 fold enrichment after MNV infection relative to mock infected cells, CR6 MOI 5 lookup needed for CTCCACGTAGGTACACCGCA: sgRNA used in screen, matches CD300lg (listed as DNA, chemistry not given here) , thanks.
Output line: −5.8

Input line: I have this substance here, GAGTGTGTCATGTCGATATG: sgRNA used in screen, matches CD300la (listed as DNA, chemistry not given here) , and I need its recorded log2 fold enrichment after MNV infection relative to mock infected cells, CR6 MOI 5.
Output line: −6.2

Input line: Record request: log2 fold enrichment after MNV infection relative to mock infected cells, CR6 MOI 5 value, item TAGAGCAGAGAACTGCCACA: sgRNA used in screen, matches CD300ld (listed as DNA, chemistry not given here)
Output line: −6.7
